- Tgt: human recombinant ATX (Homo sapiens (Human))
- Measurement protocol: ATX inhibition, hydrolysis of FRET substrate FS-3
- Type: biochemical
Readout name: ATX inhibitory activity (in words)

INSERT INTO measurements (molecule, tgt, recorded_measurement) VALUES
  ('O=C(Nc1cc(Cl)c(Cl)c(Cl)c1)c1cc(S(=O)(=O)N2CCOCC2)c(Cl)cc1Cl [Compound 3d]', 'human recombinant ATX (Homo sapiens (Human))', 'poorly active'),
  ('CS(=O)(=O)N(C(=O)c1cc(NN2CCOCC2)c(Cl)cc1Cl)c1cc(F)c(F)c(F)c1 [Compound 26a]', 'human recombinant ATX (Homo sapiens (Human))', 'inactive'),
  ('O=S(=O)(c1cc(-c2nc3cc(F)c(F)cc3[nH]2)c(Cl)cc1Cl)N1CCOCC1 [Compound 8]', 'human recombinant ATX (Homo sapiens (Human))', 'inactive'),
  ('COc1cc(NC(=O)c2cc(S(=O)(=O)N3CCOCC3)c(Cl)cc2Cl)cc(OC)c1OC [Compound 3e]', 'human recombinant ATX (Homo sapiens (Human))', 'poorly active');

###

- Tgt: human recombinant ATX (Homo sapiens (Human))
- Measurement protocol: ATX inhibition, hydrolysis of FRET substrate FS-3
- Type: biochemical
- Experimental setup: 1 μM FS-3, 4 nM human recombinant ATX, 1 hour time point; read-out: IC50 (nM ± SD) vs FS-3
Readout name: IC50

INSERT INTO results (molecule, recorded_measurement) VALUES
  ('O=C(Nc1cc(Cl)c(Cl)c(Cl)c1)c1cc(S(=O)(=O)N2CCOCC2)c(Cl)cc1Cl [Compound 3d]', '> 1000 nM'),
  ('CS(=O)(=O)N(C(=O)c1cc(NN2CCOCC2)c(Cl)cc1Cl)c1cc(F)c(F)c(F)c1 [Compound 26a]', '> 1000 nM'),
  ('O=S(=O)(c1cc(CNc2cc(F)c(F)c(F)c2)c(Cl)cc1Cl)N1CCOCC1 [Compound 11]', '396 nM'),
  ('O=S(=O)(c1cc(C(=S)Nc2ccc(F)c(F)c2)c(Cl)cc1Cl)N1CCOCC1 [Compound 13]', '67.3 nM'),
  ('O=C(Nc1ccc(F)c(F)c1)c1cc(S(=O)(=O)N2CCOCC2)c(Cl)cc1Cl [Compound 3a]', '31.5 nM'),
  ('COc1cc(NC(=O)c2cc(S(=O)(=O)N3CCOCC3)c(Cl)cc2Cl)cc(OC)c1OC [Compound 3e]', '> 1000 nM'),
  ('O=S(=O)(Nc1cc(S(=O)(=O)N2CCOCC2)c(Cl)cc1Cl)c1cccc(F)c1 [Compound 19]', '> 1000 nM'),
  ('O=C(Nc1cc(F)c(F)c(F)c1)c1cc(NN2CCOCC2)c(Cl)cc1Cl [Compound 25]', '> 1000 nM'),
  ('O=S(=O)(Nc1cc(F)c(F)c(F)c1)c1cc(S(=O)(=O)N2CCOCC2)c(Cl)cc1Cl [Compound 23]', '> 1000 nM');
